target.or.system: N-glycosylase/DNA lyase (Homo sapiens);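 note: OGG1 cleavage of a quenched duplex DNA oligonucleotide, coupled to APE1 for strand incision, read as fluorescence at 594 nm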
measurement.parameters: Compound Concentration 1.0 uM, Hit No
Description: Inhibition of OGG1 by quantifying inhibition of OGG1-mediated cleavage and dissociation of quenched duplex DNA oligonucleotides, measured as fluorescence at 594 nm. To generate a functional strand incision and increase turn-over this assay is coupled to APE1.
A collection of molecules and their measured inhibition
Write it as a number; the unit % goes unstated.

// recorded inhibition for OCCn1cc(-c2ccc3c(c2)CCC3=NO)c(-c2ccncc2)n1 : 1.67

Short answer for CS(=O)(=O)NCC[C@H](NC(=O)c1cncc2c1cnn2-c1ccc(F)cc1)c1ccnc(S(C)(=O)=O)c1 : inhibition was -0.705

Data point: CN(C)CC#Cc1ccc2[nH]c3c(c2c1)-c1nc(N)ncc1CCC3 ; inhibition = 3.18

// sample Cn1cc(C2=C(c3cn(C4CCN(Cc5ccccn5)CC4)c4ccccc34)C(=O)NC2=O)c2ccccc21 , its inhibition was -2.56

For reference, reported inhibition for O=S(=O)(NC1CCC(c2cc(F)ccc2F)(S(=O)(=O)c2ccc(Cl)cc2)CC1)C(F)(F)F (stereo not given) stands at 19.6

* * *

target.or.system: G/T mismatch-specific thymine DNA glycosylase (Homo sapiens);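 note: human TDG cleavage of quenched duplex DNA oligonucleotides coupled to APE1, strand release read as fluorescence at 594 nm, inhibition of TDG activity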
measurement.parameters: Compound Concentration 10.0 uM, Hit No
Description: Inhibition of TDG by quantifying inhibition of TDG-mediated cleavage and dissociation of quenched duplex DNA oligonucleotides, measured as fluorescence at 594 nm. To generate a functional strand incision and increase turn-over this assay is coupled to APE1.
Measured inhibition of individual entries
State just the number; it will be interpreted in %.

- Cc1nn(C)c(C)c1-c1cccc2c1CC[C@H](N(C)C)C2: -4.55

// inhibition value for COc1ccc(Oc2cc(NCCC(F)(F)F)c3ncc(-c4ccc(C(=O)NC5CC5)c(C)c4)n3n2)c(F)c1F : 93.1

Entry under test: O=C(O)Cn1c(C(=O)Nc2nc(-c3ccccc3Cl)cs2)cc2ccccc21 . Its inhibition was 39.6

Data point: Cn1ncc2c(-c3c(-c4ccc(F)cn4)nn4c3COC(C)(C)C4)ccnc21 ; inhibition = 99.5

The recorded inhibition for entry C[C@H](N)Cn1ccc2cc(F)c(Cl)cc21 equals -0.256

* * *

target.or.system: Methyl-CpG-binding domain protein 4 (Homo sapiens) (UniProt O95243)
Sequence (O95243 whole entry, the tested form may be a part): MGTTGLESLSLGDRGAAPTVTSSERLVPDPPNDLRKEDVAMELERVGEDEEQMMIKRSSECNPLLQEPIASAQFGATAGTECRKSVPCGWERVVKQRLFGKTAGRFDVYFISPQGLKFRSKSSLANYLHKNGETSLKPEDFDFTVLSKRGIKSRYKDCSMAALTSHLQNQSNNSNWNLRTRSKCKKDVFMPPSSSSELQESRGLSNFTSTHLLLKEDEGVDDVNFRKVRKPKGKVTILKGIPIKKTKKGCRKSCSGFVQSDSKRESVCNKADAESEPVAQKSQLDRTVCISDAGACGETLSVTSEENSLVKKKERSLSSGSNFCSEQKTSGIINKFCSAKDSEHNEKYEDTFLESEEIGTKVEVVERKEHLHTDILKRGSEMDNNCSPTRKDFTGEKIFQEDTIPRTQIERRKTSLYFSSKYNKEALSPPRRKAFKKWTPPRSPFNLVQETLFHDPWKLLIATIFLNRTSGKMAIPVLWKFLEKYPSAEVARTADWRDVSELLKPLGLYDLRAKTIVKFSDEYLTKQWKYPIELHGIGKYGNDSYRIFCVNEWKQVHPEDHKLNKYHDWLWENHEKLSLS
measurement.parameters: Compound Concentration 10.0 uM, Hit No
Description: Inhibition of MBD4 by quantifying inhibition of MBD4-mediated cleavage and dissociation of quenched duplex DNA oligonucleotides, measured as fluorescence at 594 nm. To generate a functional strand incision and increase turn-over this assay is coupled to APE1.
attribute.measured: inhibition (%)
# number only, unit % dropped from output

* Cc1ccc(C(C)(O)c2nc3ccccc3s2)c(C)c1 (stereo not drawn) | 0.731

Entry C=CC(=O)Nc1cccc(C(=O)Nc2ccc(Nc3cc(-c4[nH]c(S)nc4C)ccn3)cc2)c1 ; inhibition = 23.5

GET /value?item= COc1ccc2[nH]cc(CCNC(C)=O)c2c1 &field=inhibition returns -1.65

* * *

target.or.system: Endonuclease 8-like 1 (Homo sapiens) (UniProt Q96FI4);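 note: fluorescence at 594 nm from quenched duplex DNA oligonucleotides released by NEIL1 cleavage and strand separation, reported as reduction of this enzyme activity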
Sequence (Q96FI4 whole entry): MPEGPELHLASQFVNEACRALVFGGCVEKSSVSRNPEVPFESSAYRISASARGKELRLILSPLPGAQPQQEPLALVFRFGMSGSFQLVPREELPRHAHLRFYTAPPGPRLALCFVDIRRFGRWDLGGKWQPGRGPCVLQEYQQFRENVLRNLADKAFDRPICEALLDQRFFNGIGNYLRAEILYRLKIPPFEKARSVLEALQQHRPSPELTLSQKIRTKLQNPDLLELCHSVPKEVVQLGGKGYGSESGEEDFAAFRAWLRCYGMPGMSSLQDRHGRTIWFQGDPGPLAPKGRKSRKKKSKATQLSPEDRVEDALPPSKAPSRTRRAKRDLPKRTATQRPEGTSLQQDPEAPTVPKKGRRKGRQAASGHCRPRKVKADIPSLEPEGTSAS
measurement.parameters: Compound Concentration 1.0 uM, Hit No
Description: Inhibition of NEIL1 by quantifying inhibition of NEIL1-mediated cleavage and dissociation of quenched duplex DNA oligonucleotides, measured as fluorescence at 594 nm.
attribute.measured: inhibition (%)
Return type: number; implicit unit %.

Before answering, review these 4 worked examples.
• O=C(Cc1ccccc1)Nc1nnc(N2CC[C@@H]3[C@H]2CN3c2cccnn2)s1 = 0.316
• Cc1cc(F)c(C(=O)Nc2cccc(-c3nncn3C(C)C)n2)cc1-n1cnc(C2CC2)c1 = 8.59
• CNC(=O)c1ccc(Nc2ncc(C(F)(F)F)c(NCc3nccnc3N(C)S(C)(=O)=O)n2)cc1 = 3.44
• CCOC(=O)c1c(/C(C#N)=C\N)c2ccc(Cl)c(Cl)c2n1C = -2.9

inhibition in this record for CC1=C(C#N)C(c2ccc3c(c2)c(NC(=O)c2ccccc2C)nn3C)C(C#N)=C(C)N1 : 1.19

For CCCOc1ccc([C@@H]2[C@@H](C(=O)O)[C@H](c3ccc4c(c3)OCO4)CN2CC(=O)Nc2c(CC)cccc2CC)cc1 the molecule record lists inhibition as -3.17

* * *

target.or.system: Endonuclease 8-like 2 (Homo sapiens) (UniProt Q969S2)
Sequence (Q969S2 whole entry): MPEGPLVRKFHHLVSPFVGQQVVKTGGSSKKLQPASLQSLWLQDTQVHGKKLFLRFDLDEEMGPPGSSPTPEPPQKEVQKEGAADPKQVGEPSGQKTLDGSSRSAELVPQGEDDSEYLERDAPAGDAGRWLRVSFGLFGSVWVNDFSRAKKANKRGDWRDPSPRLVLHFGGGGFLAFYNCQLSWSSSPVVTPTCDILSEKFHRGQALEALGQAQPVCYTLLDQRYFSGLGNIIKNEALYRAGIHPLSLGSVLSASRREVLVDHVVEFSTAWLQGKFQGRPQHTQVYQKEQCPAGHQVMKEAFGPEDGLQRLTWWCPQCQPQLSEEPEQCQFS
measurement.parameters: Compound Concentration 10.0 uM, Hit No
Description: Inhibition of NEIL2 by quantifying inhibition of NEIL2-mediated cleavage and dissociation of quenched duplex DNA oligonucleotides, measured as fluorescence at 594 nm.
attribute.measured: inhibition (%)
Answer format: numeric, % implied, no suffix.

Worked cases, answers included:
* COc1cc(F)ccc1-c1ncnc(Nc2cccc(C[S@](C)(=N)=O)c2)n1 | -10
* FC(F)(F)Oc1ccc(-c2ccc3nnc(C(F)(F)F)n3c2)cc1 | -5.19
* Cc1cc(-c2nncc3c(C(C)(C)C)c(OCc4ncnn4C)nn23)no1 | -4.17
* O=[N+]([O-])c1ccc2nc(COCc3nc4ccc([N+](=O)[O-])cc4[nH]3)[nH]c2c1 | 2.2

Switching to the query record.
The compound identified as CCCCC(=O)N(Cc1ccc(-c2ccccc2C(=O)O)cc1)c1ccccc1 registered its inhibition at -3.15

* * *

target.or.system: Methyl-CpG-binding domain protein 4 (Homo sapiens) (UniProt O95243);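 note: MBD4 activity read as fluorescence at 594 nm from cleavage and release of a quenched duplex DNA oligonucleotide, with APE1 coupled to incise the strand and raise turnover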
measurement.parameters: Compound Concentration 1.0 uM, Hit No
attribute.measured: inhibition (%)
Use % as the unit, but write only the number.

The following compounds have reported results that may help.
- Cn1cc(Cl)c2c(Oc3c(F)cc(Nc4cc(Cl)nc(N)n4)cc3F)ccnc21: -4.8
- CCS(=O)(=O)c1cc2cc(C[C@@](O)(CC(C)(C)c3ccc(F)cc3C(N)=O)C(F)(F)F)[nH]c2cn1: 66.5
- O=C(NCc1ncc(C(F)(F)F)cc1Cl)c1ccc2c(c1)C1(CCS(=O)(=O)CC1)[C@H](C1CC1)N2S(=O)(=O)c1ccc(F)cc1: 59.6
- O=C(NOC[C@H](O)CO)c1ccc(F)c(F)c1Nc1ccc(I)cc1F: -6.44
- COc1cnccc1Nc1nc(-c2nn(Cc3c(F)cc(OCCO)cc3F)c3ccccc23)ncc1OC: 47.4
- CN(C)C(=O)Cn1cc(-c2ccc(-c3cncc4ccccc34)cc2)cn1: 30

inhibition reading for N#Cc1ccc(Nc2ccc3[nH]c(=O)[nH]c3c2)c(Cl)c1 : 63.1

# inhibition (compound: CN(c1ccnc(CNc2nc(Nc3ccc4c(c3)CC(=O)N4)ncc2C(F)(F)F)n1)S(C)(=O)=O ) is 26.2

Query O=C(NCCCC1CCCCC1)c1ccc(CNC(=O)c2cnn(-c3ccccc3)c2C(F)(F)F)cc1 yields inhibition of 56.5

Just so you know, measured inhibition for O=C(NOCC1CC1)c1ccc(F)c(F)c1Nc1ccc(I)cc1Cl came out at 41.9

* * *

Below is a list of entries, each paired with its recorded inhibition value.
target.or.system: Endonuclease 8-like 2 (Homo sapiens)
measurement.parameters: Compound Concentration 10.0 uM, Hit No
Response body: numeric value in %, unit text excluded.

Some molecules with recorded inhibition:
• CN1CCC(=C2c3ccccc3CC(=O)c3sccc32)CC1 = 2.26
• N#Cc1cc2c(OCC(O)CN3CCN(C(c4ccccc4)c4ccccc4)CC3)cccc2[nH]1 (racemic) = -1.98
• Cn1cncc1[C@](O)(COc1ccc(C#N)cc1-c1ccc(OC(F)(F)F)cc1)c1ccc(C#N)cc1 = 0.531
• N=C(N)NCCC[C@H](NC(=O)C12CC3CC(CC(C3)C1)C2)C(=O)N[C@@H](Cc1ccccc1)C(N)=O = -4.94
• CSc1ccc(C(=O)/C=C/c2cc(C)c(OC(C)(C)C(=O)O)c(C)c2)cc1 = 2.06
• COc1ccc2[nH]cc(CCNC(C)=O)c2c1 = 1.51
• Cc1cccc(NC(=O)N[C@@H]2N=C(c3ccccc3)c3ccccc3N(C)C2=O)c1 = -1.73
• CNC(=O)COc1cc2cc(Nc3nc(N4CCC(C(=O)N(C)C)CC4)ncc3Cl)cc(OC)c2n(C)c1=O = -6.1

In the following, a different molecule is considered.
Looking up Cc1cc(NC(=O)Nc2ccccc2)n(-c2ccccc2)n1 , I found its inhibition recorded as 7.29

* * *

target.or.system: Adenine DNA glycosylase (Homo sapiens) (UniProt Q9UIF7);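 note: human MUTYH activity read as 594 nm fluorescence from cleavage and release of a quenched DNA duplex, coupled with APE1 for strand incision, lower signal meaning inhibition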
Sequence (Q9UIF7 whole entry): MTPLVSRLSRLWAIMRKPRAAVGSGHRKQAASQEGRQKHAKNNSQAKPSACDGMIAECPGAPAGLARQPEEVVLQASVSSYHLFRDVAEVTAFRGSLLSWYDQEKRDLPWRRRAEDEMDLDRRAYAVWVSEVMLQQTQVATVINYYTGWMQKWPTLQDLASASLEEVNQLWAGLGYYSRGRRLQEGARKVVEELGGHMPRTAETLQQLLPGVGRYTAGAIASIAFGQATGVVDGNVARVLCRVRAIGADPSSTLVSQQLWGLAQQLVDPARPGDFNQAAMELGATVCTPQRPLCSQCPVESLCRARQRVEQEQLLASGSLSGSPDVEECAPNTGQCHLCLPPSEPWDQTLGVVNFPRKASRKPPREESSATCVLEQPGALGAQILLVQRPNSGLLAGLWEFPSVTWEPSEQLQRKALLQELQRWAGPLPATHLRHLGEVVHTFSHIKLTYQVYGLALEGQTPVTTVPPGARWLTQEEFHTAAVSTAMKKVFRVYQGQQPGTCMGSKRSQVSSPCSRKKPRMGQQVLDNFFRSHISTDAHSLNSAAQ
measurement.parameters: Compound Concentration 10.0 uM, Hit No
Description: Inhibition of MUTYH by quantifying inhibition of MUTYH-mediated cleavage and dissociation of quenched duplex DNA oligonucleotides, measured as fluorescence at 594 nm. To generate a functional strand incision and increase turn-over this assay is coupled to APE1.
attribute.measured: inhibition (%)
Your answer should be a plain number; it is taken to be in %.

Examples from the recorded data:
* COc1cc(C(=O)N(CCC2CCCN2C)C/C(C)=C/c2ccccc2F)cc(OC)c1OC (stereo not given) | -4.18
* Cc1ccc(O)c([C@H](CCN(C(C)C)C(C)C)c2ccccc2)c1 | 8.6
* Cc1cccc(CCN2CCC(C(=O)c3ccc(NS(C)(=O)=O)cc3)CC2)n1 | -5.27
* O=C(Nc1cc(C(F)(F)F)cc(C(F)(F)F)c1)c1cc(Cl)ccc1O | -9.19

For CC[C@H]1CN(c2nc(N)c(C(N)=O)nc2Cl)CCN1C1CCN(Cc2ccc(Cl)cc2)CC1 the compound record lists inhibition as -3.97

Reported inhibition for COCCn1c(C)c(C)s/c1=N\C(=O)C1C(C)(C)C1(C)C was 20.8

* * *

target.or.system: Endonuclease 8-like 2 (Homo sapiens) (UniProt Q969S2);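 note: fluorescence at 594 nm reports NEIL2 cutting and release of a quenched double-stranded DNA oligo substrate, reduced signal read as inhibition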
measurement.parameters: Compound Concentration 10.0 uM, Hit No
Reported inhibition values are given for each entry in this list.
Record the value in %, omitting the unit from your answer.

Summary for this molecule, CN1CCN(c2cc(-c3ccccc3)nc(N)n2)CC1 : inhibition is 7

Sample N[C@](CC1c2ccccc2Oc2ccccc21)(C(=O)O)[C@H]1C[C@@H]1C(=O)O ; inhibition observed: 0.414

Reported inhibition for CC[C@H]1CN(c2nc(N)c(C(N)=O)nc2Cl)CCN1C1CCN(Cc2ccc(Cl)cc2)CC1 was 3.47

Please fill in: inhibition reported for CN1CCN(C(=O)c2ccc3cc2OCCOCCNc2ccn4ncc-3c4n2)CC1 = -5.69

meta.source: ChEMBL document CHEMBL5665443
